# experimentalDetails: Approximate solubility of Form A: saturated solutions, gravimetric determination after solvent removal
# Assay type: physicochemical
# details: organic solvent or mixture, thermodynamic from solid, 2-propanol/water (9:1), read-out: Solubility
# Protocol: Approximate solubility was measured by preparation of saturated solutions in various solvents and gravimetric determination of dissolved substance after solvent removal.
assayReadout: solubility

Q: Form field: reported solubility of CC(C)COc1ccc(CNC(=O)N(Cc2ccc(F)cc2)C2CCN(C)CC2)cc1.CC(C)COc1ccc(CNC(=O)N(Cc2ccc(F)cc2)C2CCN(C)CC2)cc1.O=C(O)C(O)C(O)C(=O)O [Form A]
Ans: < 1000 µg/mL

---

# experimentalDetails: Approximate solubility of Form A: saturated solutions, gravimetric determination after solvent removal
# Format: physicochemical
# details: aqueous with cosolvent or surfactant or cyclodextrin, thermodynamic from solid, acetone/water (1:1), read-out: Solubility
assayReadout: solubility

Q: Form field: reported solubility of CC(C)COc1ccc(CNC(=O)N(Cc2ccc(F)cc2)C2CCN(C)CC2)cc1.CC(C)COc1ccc(CNC(=O)N(Cc2ccc(F)cc2)C2CCN(C)CC2)cc1.O=C(O)C(O)C(O)C(=O)O [Form A]
Ans: > 200 mg/mL

---

# experimentalDetails: Approximate solubility of the crystalline free base in solvents at room temperature
# Assay type: physicochemical
# details: organic solvent or mixture, dichloromethane, read-out: Solubility
assayReadout: solubility

Q: Form field: reported solubility of CC(C)COc1ccc(CNC(=O)N(Cc2ccc(F)cc2)C2CCN(C)CC2)cc1 [crystalline free base of formula I]
Ans: > 500 mg/mL

---

# experimentalDetails: Approximate solubility of Form A: saturated solutions, gravimetric determination after solvent removal
# Type: physicochemical
# details: organic solvent or mixture, thermodynamic from solid, 2-propanol, read-out: Solubility
assayReadout: solubility

Q: Form field: reported solubility of CC(C)COc1ccc(CNC(=O)N(Cc2ccc(F)cc2)C2CCN(C)CC2)cc1.CC(C)COc1ccc(CNC(=O)N(Cc2ccc(F)cc2)C2CCN(C)CC2)cc1.O=C(O)C(O)C(O)C(=O)O [Form A]
Ans: ~1000 µg/mL

---

# experimentalDetails: Approximate solubility of Form A: saturated solutions, gravimetric determination after solvent removal
# Type: physicochemical
# details: organic solvent or mixture, thermodynamic from solid, methyl ethyl ketone, read-out: Solubility
assayReadout: solubility

Q: Form field: reported solubility of CC(C)COc1ccc(CNC(=O)N(Cc2ccc(F)cc2)C2CCN(C)CC2)cc1.CC(C)COc1ccc(CNC(=O)N(Cc2ccc(F)cc2)C2CCN(C)CC2)cc1.O=C(O)C(O)C(O)C(=O)O [Form A]
Ans: < 1000 µg/mL

---

# experimentalDetails: Approximate solubility of Form A: saturated solutions, gravimetric determination after solvent removal
# Assay type: physicochemical
# details: organic solvent or mixture, thermodynamic from solid, methanol, read-out: Solubility
assayReadout: solubility

Q: Form field: reported solubility of CC(C)COc1ccc(CNC(=O)N(Cc2ccc(F)cc2)C2CCN(C)CC2)cc1.CC(C)COc1ccc(CNC(=O)N(Cc2ccc(F)cc2)C2CCN(C)CC2)cc1.O=C(O)C(O)C(O)C(=O)O [Form A]
Ans: > 100 mg/mL

---

# experimentalDetails: physchem
# details: aqueous solubility
assayReadout: solubility

Q: Form field: reported solubility of CC(C)COc1ccc(CNC(=O)N(Cc2ccc(F)cc2)C2CCN(C)CC2)cc1 [Form E]
Ans: > 200 mg/mL

---

# experimentalDetails: Approximate solubility of Form A: saturated solutions, gravimetric determination after solvent removal
# Format: physicochemical
# details: organic solvent or mixture, thermodynamic from solid, ethyl acetate, read-out: Solubility
assayReadout: solubility

Q: Form field: reported solubility of CC(C)COc1ccc(CNC(=O)N(Cc2ccc(F)cc2)C2CCN(C)CC2)cc1.CC(C)COc1ccc(CNC(=O)N(Cc2ccc(F)cc2)C2CCN(C)CC2)cc1.O=C(O)C(O)C(O)C(=O)O [Form A]
Ans: < 1000 µg/mL

---

# experimentalDetails: Approximate solubility of Form A: saturated solutions, gravimetric determination after solvent removal
# Format: physicochemical
# details: organic solvent or mixture, thermodynamic from solid, 1,4-dioxane, read-out: Solubility
assayReadout: solubility

Q: Form field: reported solubility of CC(C)COc1ccc(CNC(=O)N(Cc2ccc(F)cc2)C2CCN(C)CC2)cc1.CC(C)COc1ccc(CNC(=O)N(Cc2ccc(F)cc2)C2CCN(C)CC2)cc1.O=C(O)C(O)C(O)C(=O)O [Form A]
Ans: ~2000 µg/mL

---

# experimentalDetails: Approximate solubility of Form A: saturated solutions, gravimetric determination after solvent removal
# Type: physicochemical
# details: thermodynamic from solid, water, read-out: Solubility
assayReadout: solubility

Q: Form field: reported solubility of CC(C)COc1ccc(CNC(=O)N(Cc2ccc(F)cc2)C2CCN(C)CC2)cc1.CC(C)COc1ccc(CNC(=O)N(Cc2ccc(F)cc2)C2CCN(C)CC2)cc1.O=C(O)C(O)C(O)C(=O)O [Form A]
Ans: > 300 mg/mL

---

# experimentalDetails: Approximate solubility of Form A: saturated solutions, gravimetric determination after solvent removal
# Type: physicochemical
# details: organic solvent or mixture, thermodynamic from solid, t-butyl methyl ether, read-out: Solubility
assayReadout: solubility

Q: Form field: reported solubility of CC(C)COc1ccc(CNC(=O)N(Cc2ccc(F)cc2)C2CCN(C)CC2)cc1.CC(C)COc1ccc(CNC(=O)N(Cc2ccc(F)cc2)C2CCN(C)CC2)cc1.O=C(O)C(O)C(O)C(=O)O [Form A]
Ans: < 1000 µg/mL

---

# experimentalDetails: Approximate solubility of Form A: saturated solutions, gravimetric determination after solvent removal
# Type: physicochemical
# details: organic solvent or mixture, thermodynamic from solid, toluene, read-out: Solubility
assayReadout: solubility

Q: Form field: reported solubility of CC(C)COc1ccc(CNC(=O)N(Cc2ccc(F)cc2)C2CCN(C)CC2)cc1.CC(C)COc1ccc(CNC(=O)N(Cc2ccc(F)cc2)C2CCN(C)CC2)cc1.O=C(O)C(O)C(O)C(=O)O [Form A]
Ans: < 1000 µg/mL

---

# experimentalDetails: Approximate solubility of the crystalline free base in solvents at room temperature
# Assay type: physicochemical
# details: organic solvent or mixture, tetrahydrofuran, read-out: Solubility
assayReadout: solubility

Q: Form field: reported solubility of CC(C)COc1ccc(CNC(=O)N(Cc2ccc(F)cc2)C2CCN(C)CC2)cc1 [crystalline free base of formula I]
Ans: > 250 mg/mL

---

# experimentalDetails: Approximate solubility of Form A: saturated solutions, gravimetric determination after solvent removal
# Type: physicochemical
# details: organic solvent or mixture, thermodynamic from solid, acetone, read-out: Solubility
assayReadout: solubility

Q: Form field: reported solubility of CC(C)COc1ccc(CNC(=O)N(Cc2ccc(F)cc2)C2CCN(C)CC2)cc1.CC(C)COc1ccc(CNC(=O)N(Cc2ccc(F)cc2)C2CCN(C)CC2)cc1.O=C(O)C(O)C(O)C(=O)O [Form A]
Ans: ~2000 µg/mL

---

# experimentalDetails: Approximate solubility of the crystalline free base in solvents at room temperature
# Format: physicochemical
# details: organic solvent or mixture, methanol, read-out: Solubility
assayReadout: solubility (mg/mL)
Respond with the bare value in mg/mL.

Q: Form field: reported solubility of CC(C)COc1ccc(CNC(=O)N(Cc2ccc(F)cc2)C2CCN(C)CC2)cc1 [crystalline free base of formula I]
Ans: 170
